- measurement-protocol: total protein half-life in vivo (active degradation + dilution); higher = more stable protein
- test-conditions: E. coli NCM3722 delta-lon; growth: N-lim chemostat; doubling time 6 h
endpoint-name: total protein half-life in vivo (h)
Return type: number; implicit unit h.

total protein half-life in vivo lookup needed for MFTGSIVAIVTPMDEKGNVCRASLKKLIDYHVASGTSAIVSVGTTGESATLNHDEHADVVMMTLDLADGRIPVIAGTGANATAEAISLTQRFNDSGIVGCLTVTPYYNRPSQEGLYQHFKAIAEHTDLPQILYNVPSRTGCDLLPETVGRLAKVKNIIGIKEATGNLTRVNQIKELVSDDFVLLSGDDASALDFMQLGGHGVISVTANVAARDMAQMCKLAAEGHFAEARVINQRLMPLHNKLFVEPNPIPVKWACKELGLVATDTLRLPMTPITDSGRETVRAALKHAGLL [P0A6L2] , thanks. 4.05

Suppose we examine the sequence MNKTITALAIMMASFAANASVLPETPVPFKSGTGAIDNDTVYIGLGSAGTAWYKLDTQAKDKKWTALAAFPGGPRDQATSAFIDGNLYVFGGIGKNSEGLTQVFNDVHKYNPKTNSWVKLMSHAPMGMAGHVTFVHNGKAYVTGGVNQNIFNGYFEDLNEAGKDSTAIDKINAHYFDKKAEDYFFNKFLLSFDPSTQQWSYAGESPWYGTAGAAVVNKGDKTWLINGEAKPGLRTDAVFELDFTGNNLKWNKLAPVSSPDGVAGGFAGISNDSLIFAGGAGFKGSRENYQNGKNYAHEGLKKSYSTDIHLWHNGKWDKSGELSQGRAYGVSLPWNNSLLIIGGETAGGKAVTDSVLITVKDNKVTVQN ; what total protein half-life in vivo value has been reported? 6.24

* * *

- measurement-protocol: total protein half-life in vivo (active degradation + dilution); higher = more stable protein
- test-conditions: wild type E. coli NCM3722; growth: P-lim chemostat; doubling time 6 h
Answer each item with its documented total protein half-life in vivo.
Just the number in h, nothing appended.

// returns reported total protein half-life in vivo for input MLELLFLLLPVAAAYGWYMGRRSAQQNKQDEANRLSRDYVAGVNFLLSNQQDKAVDLFLDMLKEDTGTVEAHLTLGNLFRSRGEVDRAIRIHQTLMESASLTYEQRLLAIQQLGRDYMAAGLYDRAEDMFNQLTDETDFRIGALQQLLQIYQATSEWQKAIDVAERLVKLGKDKQRVEIAHFYCELALQHMASDDLDRAMTLLKKGAAADKNSARVSIMMGRVFMAKGEYAKAVESLQRVISQDRELVSETLEMLQTCYQQLGKTAEWAEFLQRAVEENTGADAELMLADIIEARDGSEAAQVYITRQLQRHPTMRVFHKLMDYHLNEAEEGRAKESLMVLRDMVGEKVRSKPRYRCQKCGFTAYTLYWHCPSCRAWSTIKPIRGLDGL [P0AB58] 5.63

Need total protein half-life in vivo of MFEYLPELMKGLHTSLTLTVASLIVALILALIFTIILTLKTPVLVWLVRGYITLFTGTPLLVQIFLIYYGPGQFPTLQEYPALWHLLSEPWLCALIALSLNSAAYTTQLFYGAIRAIPEGQWQSCSALGMSKKDTLAILLPYAFKRSLSSYSNEVVLVFKSTSLAYTITLMEVMGYSQLLYGRTYDVMVFGAAGIIYLVVNGLLTLMMRLIERKALAFERRN [P0AE30] , thanks. 6.32
